B1: HHH_rd1_0493 (parent)
chain: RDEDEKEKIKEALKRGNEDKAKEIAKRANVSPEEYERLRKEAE

variants of: B1; experiment: folding stability dG (cDNA display proteolysis); higher = more stable; settings: PBS, room temperature
Property: folding stability dG; scope: individual variants
Numeric only. Scale: kcal/mol

# ALTERATION, MEASUREMENT
measured = [
    ("R27K", 2.93),
    ("K26A", 3.03),
    ("E11C", 2.99),
    ("R37V", 2.24),
    ("N17F", 2.98),
]

Kindly note the recorded folding stability dG for K26P , which is 0.553

Measured folding stability dG, R1D : 3.13

// field: folding stability dG; key: D19H ; value = 2.85

For record R39M the listed folding stability dG is 2.1

The reported folding stability dG of the variant E36T was 1.7

folding stability dG for I24Y is 1.73

Reported folding stability dG for E36Q was 2.11

Reported folding stability dG ( P32D ) = 3.02

Field folding stability dG (entry K14S ) reads 2.36

Please fill in: folding stability dG reported for I9H = 0.471
